# credit: ChEMBL document CHEMBL1201862

tested on: SK-MEL-2; assay: NCI tumour cell line growth inhibition, 48 h
The source made the active and inactive calls. Cut-off read from the data, not from the text of the source: active = GI50 up to about 1.1 µM and inactive = higher.
API: response.call in YES for active, NO for inactive

compound	cat
CC(=O)Nc1ccc(C(=O)NN2C(=O)CSC2c2ccc(O)cc2)cc1 (configuration not stated)	NO
CCOC(=O)C1=C(C)C2C3C(=O)NC(=O)C3C1(C)C1C(=O)NC(=O)C21 (configuration not stated)	NO
CCCCCCCCCCCCN(CC(O)C(O)C(OC1OC(CO)C(O)C(O)C1O)C(O)CO)C(=O)CCCCCCCCCCC (configuration not stated)	NO
CC(=O)OCC1OC(N2C(C)=C(C(C)=O)C(c3ccco3)C(C#N)=C2S)C(OC(C)=O)C(OC(C)=O)C1OC(C)=O (configuration not stated)	NO
CC1=C(/C=C/C(C)=C/C=C/C(C)=C/C(=O)OCC2OC(n3cc(F)c(=O)[nH]c3=O)CC2OC(=O)/C=C(C)/C=C/C=C(C)/C=C/C2=C(C)CCCC2(C)C)C(C)(C)CCC1 (configuration not stated)	NO

# input In this assay, the call recorded for `O=C1/C(=C/c2cccc([N+](=O)[O-])c2)Cc2ccccc21` was what?
# output NO

# input Outcome? `O=C1C(c2c(O)[nH]c3ccc(I)cc23)=Nc2ccccc21`
# output NO

# input Hi team, can someone confirm the assay call for CCC(=O)OC1CCn2c1nc1c2C(=O)C(C)=C(NC(C)=O)C1=N (configuration not stated) ?
# output NO

# input // param item: `CNC(=O)OCc1c(CO)nc(SC)n1C` ; yields the recorded call
# output NO

# input Which outcome was assigned to `Cc1n[nH]c(=O)n1/N=C/c1c[nH]c2ccccc12` in this test?
# output NO

----------
tested on: Hs-578T; test: NCI tumour cell line growth inhibition, 48 h
Calls of active or inactive are those of the source. No stated cut-off is given here; in the data, active = GI50 up to about 1.1 µM and inactive = higher.
Please state which outcome applies, choosing from True for active, False for inactive

Worked examples, 8 compounds total:
compound	cat
O=C(O)CCNCC(=O)O	False
CN(C)CCS/C(=N\c1ccccc1)N1C=COC=C1	False
COc1ccc(C(=O)O[C@@H]2CCN3CC[C@H](C)[C@H]23)cc1	False
O=S(=O)(Cc1ccccc1)c1nnc(S(=O)(=O)c2ccc(Cl)cc2)s1	False
COC(=O)[C@]1(C)CCC[C@@]2(C)C1CC[C@@]13C=C(C(C)C)[C@@H](CC1=O)CC23 (stereo partly drawn)	False
CCOC(=O)c1sc2nc(SC)nc3c2c1NCN3c1ccccc1Cl	False
Nc1c2c(nc3ccccc13)CCCc1ccccc1-2	False
CC1NC(=O)C2Cc3ccc(O)c(c3)Oc3ccc(cc3)C(O)C(C(=O)N2C)N(C)C(=O)C(C)NC(=O)C(Cc2ccc(O)cc2)N(C)C(=O)C(C)NC1=O (stereo not drawn)	False

Now examine the next entry.
# input Hi team, can someone confirm the assay call for `CCOC(=O)C1(F)S(=O)(=O)OCCOS1(=O)=O` ?
# output False

----------
test system: 786-0; assay: NCI tumour cell line growth inhibition, 48 h
The source made the active and inactive calls. No stated cut-off is given here; in the data, active = GI50 up to about 1.1 µM and inactive = higher.
Measured GI50, listed per entry.

# example entries with known answers
molecule	GI50
O=C1C(Br)=CC2(C=C1Br)CCNC1=C2C(=O)c2ncccc2C1=O	1.47 µM (inactive)
O=C(O)c1ccccc1Sc1ccccc1[N+](=O)[O-]	> 100 µM (inactive)

# input Using the record for `O=C1NCCCNCCCNCCCNC(=O)c2cccc1n2` , report its GI50.
# output > 100 µM (inactive)

# input Could you tell me which GI50 is on file for N#CCCN(CCC#N)c1ccc(C(Sc2ccccc2)C(NC(=O)c2cc([N+](=O)[O-])ccc2Cl)C(=O)Sc2ccccc2)cc1 (stereo not given) ?
# output 1.89 µM (inactive)

# input Look up GI50 for this molecule: `N#Cc1c(-c2ccc(Cl)cc2)c(C#N)c(=O)n(NS(=O)(=O)c2ccccc2)c1-c1ccccc1`
# output > 25 µM (inactive)
